Quick list: Total Cell Count per entry.
Tested on: U2OS
Test: Multiplex assay against U2OS
Type: toxicity, cell-based
Conditions: human, 12 h, 10 µM, compound concentration 10 uM, replicate 1
PARAMETER: Total Cell Count

>  <COMPOUND>
COc1cc(-n2cnc3cc(-c4ccc(Cl)cc4)sc3c2=O)ccc1OCCN1CCCC1

>  <RECORDED NUMBER>
144

$$$$
>  <COMPOUND>
C=CC(=O)Nc1cccc(C(=O)Nc2ccc(Nc3cc(-c4[nH]c(SC)nc4C)ccn3)cc2)c1

>  <RECORDED NUMBER>
171

$$$$
>  <COMPOUND>
CCN(CC)CCCCNc1ncc2cc(-c3cc(OC)cc(OC)c3)c(NC(=O)NC(C)(C)C)nc2n1 [PD-173074]

>  <RECORDED NUMBER>
206

$$$$

###

The entries below are paired with their reported Population Mitochondria Different-Phenotype (%).
Tested on: Fibroblast
Assay: Multiplex assay against human fibroblast
Format: toxicity, cell-based
Conditions: 12 h, 1 µM, compound concentration 1 uM, replicate 2
PARAMETER: Population Mitochondria Different-Phenotype (%)

>  <COMPOUND>
CNCc1ccc(-c2cc(-c3nc(-c4ccc(S(=O)(=O)C(C)C)cc4)cnc3N)on2)cc1

>  <RESULT>
4%

$$$$
>  <COMPOUND>
C[C@@H](NCCCc1cccc(C(F)(F)F)c1)c1cccc2ccccc12.Cl [CINACALCET HYDROCHLORIDE]

>  <RESULT>
22%

$$$$
>  <COMPOUND>
CN1CCN(c2ccc(OC(F)(F)F)c(Nc3ncc4c(n3)-c3c(c(C(N)=O)nn3CCO)CC4)c2)CC1

>  <RESULT>
14%

$$$$
>  <COMPOUND>
CN(C)C(=O)/C(C#N)=C/c1ccc(-c2nc3cnc4[nH]ccc4c3n2C2CCCCC2)o1

>  <RESULT>
6%

$$$$
>  <COMPOUND>
CN1CCCC(n2nc(Cc3ccc(Cl)cc3)c3ccccc3c2=O)CC1.Cl (stereo not drawn) [AZELASTINE HYDROCHLORIDE]

>  <RESULT>
57%

$$$$
>  <COMPOUND>
NC(=O)Nc1cc(-c2cccc(F)c2)sc1C(=O)N[C@H]1CCCNC1

>  <RESULT>
3%

$$$$
>  <COMPOUND>
Cc1nc(-c2ccc(-c3ccc(C(=O)N4CCc5cc6c(cc54)C4(CCN(C)CC4)CO6)cc3)c(C)c2)no1

>  <RESULT>
42%

$$$$
>  <COMPOUND>
CCN(CC)CCCCNc1ncc2cc(-c3cc(OC)cc(OC)c3)c(NC(=O)NC(C)(C)C)nc2n1

>  <RESULT>
0%

$$$$

###

Each entry below carries its recorded Population Normal (%).
Tested on: U2OS
Assay: Multiplex assay against U2OS
Assay type: toxicity, cell-based
Details: human, 12 h, 1 µM, compound concentration 1 uM, replicate 2

>  <COMPOUND>
O=C1NCN(c2ccccc2)C12CCN(CCCOc1ccc(F)cc1)CC2 [SPIRAMIDE]

>  <RESULT UNITS>
%

>  <Population Normal (%)>
92

$$$$
>  <COMPOUND>
CC[C@H](C)C(=O)O[C@H]1C[C@@H](C)C=C2C=C[C@H](C)[C@H](CC[C@@H]3C[C@@H](O)CC(=O)O3)[C@H]21

>  <RESULT UNITS>
%

>  <Population Normal (%)>
88

$$$$
>  <COMPOUND>
COc1cccc([C@@H](C)NCCCc2ccccc2Cl)c1.Cl [TECALCET HYDROCHLORIDE]

>  <RESULT UNITS>
%

>  <Population Normal (%)>
89

$$$$
>  <COMPOUND>
C[C@@H](NCCCc1cccc(C(F)(F)F)c1)c1cccc2ccccc12.Cl [CINACALCET HYDROCHLORIDE]

>  <RESULT UNITS>
%

>  <Population Normal (%)>
90

$$$$
>  <COMPOUND>
COc1ncc(-c2ccc3nccc(-c4ccnnc4)c3c2)cc1NS(=O)(=O)c1ccc(F)cc1F

>  <RESULT UNITS>
%

>  <Population Normal (%)>
92

$$$$
>  <COMPOUND>
CN1CCN(CCOc2cc(OC3CCOCC3)c3c(Nc4c(Cl)ccc5c4OCO5)ncnc3c2)CC1

>  <RESULT UNITS>
%

>  <Population Normal (%)>
90

$$$$
>  <COMPOUND>
OC1(c2ccc(Cl)cc2)CCN(Cc2c[nH]c3ccccc23)CC1

>  <RESULT UNITS>
%

>  <Population Normal (%)>
89

$$$$
>  <COMPOUND>
CN1CCCC(n2nc(Cc3ccc(Cl)cc3)c3ccccc3c2=O)CC1.Cl (stereo unspecified) [AZELASTINE HYDROCHLORIDE]

>  <RESULT UNITS>
%

>  <Population Normal (%)>
88

$$$$
>  <COMPOUND>
CNc1nc(NCc2ccc(NS(C)(=O)=O)cc2Cl)cc(-c2ccccn2)n1

>  <RESULT UNITS>
%

>  <Population Normal (%)>
91

$$$$
>  <COMPOUND>
Cc1cc(C)cc(-c2cnc3cc(Cl)c(-c4cccc(O)c4)cc3c2OCCCN)c1

>  <RESULT UNITS>
%

>  <Population Normal (%)>
90

$$$$
>  <COMPOUND>
Cc1c(-c2ccc(O)cc2)n(Cc2ccc(OCCN3CCCCCC3)cc2)c2ccc(O)cc12

>  <RESULT UNITS>
%

>  <Population Normal (%)>
89

$$$$
